- target-or-test-system: Hu PD-L1/PD-1 (Homo sapiens, UniProt Q9NZQ7)
- Sequence (Q9NZQ7 19-290): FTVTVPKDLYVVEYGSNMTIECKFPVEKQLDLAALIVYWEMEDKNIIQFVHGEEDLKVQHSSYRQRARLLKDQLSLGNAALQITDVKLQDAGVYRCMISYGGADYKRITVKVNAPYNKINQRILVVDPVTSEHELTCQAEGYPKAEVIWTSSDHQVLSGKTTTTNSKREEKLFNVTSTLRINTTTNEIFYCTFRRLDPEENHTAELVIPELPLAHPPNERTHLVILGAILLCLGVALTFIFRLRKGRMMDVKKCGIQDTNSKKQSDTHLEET
- assay-name: Cell binding assay Hu PD-L1/PD-1 (Tables 11-13, cell line not given)
- Type: cell-based
- Method: The ability of the macrocyclic peptides of the present disclosure to bind to Jurkat, mouse B cell line (LK35.2), and a human lung adenocarcinoma cell line (L2987) was investigated. Jurkat-PD-1 Cell Binding Assay. […] Cells were resuspended in 200 μl of dPBS and binding was measured by flow cytometry. […] Cells were resuspended in 200 μl of dPBS and binding was measured by flow cytometry. […]
Positions of bridges follow the written chain, without caps; N, C: chain ends. Non-standard residues stand in square brackets, D forms with d. Residues, ends and D or L forms follow the SMILES beside them. NMeNle = CCCC[C@H](NC)C(=O)O; NMeA = CN[C@@H](C)C(=O)O; Sar = CNCC(=O)O
measured-quantity: IC50 (nM)
One number for each entry, in nM.

Noted for CCCC[C@H]1C(=O)N(C)[C@@H](CCCC)C(=O)N[C@@H](CCCNC(=N)N)C(=O)N[C@H](C(=O)NCC(N)=O)CSCC(=O)N[C@@H](Cc2ccccc2)C(=O)N(C)[C@@H](C)C(=O)N[C@@H](CC(N)=O)C(=O)N[C@@H](C)C(=O)N[C@@H](Cc2cnc[nH]2)C(=O)N[C@@H](CC(C)C)C(=O)N(C)CC(=O)N[C@@H](Cc2c[nH]c3ccccc23)C(=O)N[C@@H](CO)C(=O)N[C@@H](Cc2c[nH]c3ccccc23)C(=O)N1C [Compound No. 9] ({CH2CO}-F[NMeA]NAHL[Sar]WSW[NMeNle][NMeNle]RCG-NH2; thioether N-14) : its IC50 reads 71
